Form field: % inhibition Apol 40' (one value per entry).
study target: P. falciparum apicoplast DNA polymerase (Pf-apPOL) (Plasmodium falciparum)
assay explanation: Fluorescence-based high-throughput DNA polymerase assay (molecular beacon), primary screen and dose-response
Assay type: biochemical
condition details: DRC-2; 40'; concentration 40

{"molecule": "COc1ccc(-c2n[nH]cc2Oc2ccc(Cl)cc2)c(O)c1 [KU0029837]", "unit annotation": "%", "% inhibition Apol 40'": 69}
{"molecule": "O=c1cc(CN2CCCCC2)c2cc3c(cc2o1)OCO3 [Molecule 56, O=c1cc(CN2CCCCC2)c2c(o1)cc1c(c2)OCO1]", "unit annotation": "%", "% inhibition Apol 40'": 54}
{"molecule": "O=C(NC(C(Cl)Cl)S(=O)(=O)c1ccccc1)c1ccccc1 (centres unmarked) [KU0045239]", "unit annotation": "%", "% inhibition Apol 40'": 76}
{"molecule": "Cc1ccc2c(C(=O)NCCc3cccnc3)cc(NC(=O)C(C)C)cc2n1 [KU0206096]", "unit annotation": "%", "% inhibition Apol 40'": 62}
{"molecule": "COc1ccc(-c2c(C(F)(F)F)nn3c(=O)cc(-c4cccc([N+](=O)[O-])c4)[nH]c23)cc1 [Molecule 16]", "unit annotation": "%", "% inhibition Apol 40'": 75}
{"molecule": "CCCCCCCCCCCCCCCCCC(=O)CCN(C)C [KU0271928]", "unit annotation": "%", "% inhibition Apol 40'": 28}
{"molecule": "Nc1c(S(=O)(=O)O)cc(Nc2ccccc2)c2c1C(=O)c1ccccc1C2=O [KU0045407]", "unit annotation": "%", "% inhibition Apol 40'": 86}
{"molecule": "O=C(Cn1ccc2c(=O)[nH]ccc21)Nc1cc(F)ccc1F [Molecule 42, O=C(Cn1ccc2c1cc[nH]c2=O)Nc1cc(F)ccc1F]", "unit annotation": "%", "% inhibition Apol 40'": 58}

----------
Catalogue of molecules with associated pIC50
study target: P. falciparum apicoplast DNA polymerase (Pf-apPOL) (Plasmodium falciparum, UniProt Q8ILY1)
Sequence (Q8ILY1 entry or part of it): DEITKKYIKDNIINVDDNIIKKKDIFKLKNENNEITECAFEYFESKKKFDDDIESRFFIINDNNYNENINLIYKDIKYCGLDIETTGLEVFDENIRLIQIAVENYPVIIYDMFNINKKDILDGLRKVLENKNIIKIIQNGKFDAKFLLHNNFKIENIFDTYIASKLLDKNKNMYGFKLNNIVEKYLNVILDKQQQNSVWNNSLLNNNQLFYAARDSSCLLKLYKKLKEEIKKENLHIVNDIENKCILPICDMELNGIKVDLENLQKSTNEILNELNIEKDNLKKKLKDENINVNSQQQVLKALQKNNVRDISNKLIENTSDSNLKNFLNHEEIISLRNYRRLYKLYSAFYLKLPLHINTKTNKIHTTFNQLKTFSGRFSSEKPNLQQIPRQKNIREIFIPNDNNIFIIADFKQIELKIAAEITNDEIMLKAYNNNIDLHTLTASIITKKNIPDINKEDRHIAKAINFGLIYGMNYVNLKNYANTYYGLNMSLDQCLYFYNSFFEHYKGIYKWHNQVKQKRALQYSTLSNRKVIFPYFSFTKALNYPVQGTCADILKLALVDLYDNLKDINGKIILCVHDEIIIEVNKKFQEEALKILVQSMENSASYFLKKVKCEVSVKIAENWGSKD
assay explanation: Fluorescence-based high-throughput DNA polymerase assay (molecular beacon), primary screen and dose-response
Assay type: biochemical
condition details: supplemental file 2, sheet IC50 nontoxic compounds; Pf-apPOL
Text: The HT assay employs a molecular beacon, a stem-loop DNA template with a Cy3 dye and the Black Hole Quencher on the 3′ and 5′ ends of the DNA, respectively. Pf-apPOL concentration is based on a calculated absorptivity of ε280 = 56750 M^−1 cm^−1. […] To identify apPOL inhibitors we utilised our previously developed high-throughput DNA polymerase assay. […] The assay accurately recapitulates the kinetic behaviour of apPOL, as measured through more conventional low-throughput gel-based assays. […]
pIC50: −log10 of the molar value.

{"molecule": "O=C(O)c1cccc(N2N=C(C(F)(F)F)/C(=C/c3ccc(-c4ccccc4[N+](=O)[O-])o3)C2=O)c1 [Molecule 100]", "qualifier operator": "=", "pIC50": 5.02}
{"molecule": "O=C(O)C(=O)Nc1nc(-c2ccc3c(c2)OCCO3)cs1 [Molecule 82]", "qualifier operator": "=", "pIC50": 4.39}
{"molecule": "CC(C)CCNC(=O)c1cnn2c(O)cc(CSc3ccc(Cl)cc3)nc12 [Molecule 101]", "qualifier operator": "=", "pIC50": 5.01}
{"molecule": "CCCCCc1c2c(cc(O)c1C(=O)O)OC(=O)c1c(cc(OC)cc1C(=O)CCCC)O2 [Molecule 24]", "qualifier operator": "=", "pIC50": 5.03}
{"molecule": "CN(C)C=CC(=O)c1ccccn1 [Molecule 64]", "qualifier operator": "=", "pIC50": 4.73}
{"molecule": "COc1ccc(CNC(=O)Cn2nc3c(c2NC(=O)Cc2cccs2)CSC3)cc1 [Molecule 55]", "qualifier operator": "=", "pIC50": 4.98}
{"molecule": "Cc1cccc2c(C(=O)NC(C)C)cc(N(C)C)nc12 [Molecule 47]", "qualifier operator": "=", "pIC50": 4.80}
{"molecule": "O=C(O)CCS(=O)(=O)c1ccc(-c2ccc(S(=O)(=O)CCC(=O)O)cc2)cc1 [Molecule 32]", "qualifier operator": "=", "pIC50": 5.24}
{"molecule": "O=C(c1ccccc1)N1CCc2c(nc3cc(-c4ccccc4)[nH]n3c2=O)C1 [Molecule 30]", "qualifier operator": "=", "pIC50": 5.02}
{"molecule": "O=[N+]([O-])/C=C/c1ccc(-c2ccc(Br)cc2)o1 [Molecule 31]", "qualifier operator": "=", "pIC50": 4.80}
{"molecule": "Cc1ccccc1NC(=O)Cn1ccc2c(=O)[nH]ccc21 [Molecule 85]", "qualifier operator": "=", "pIC50": 5.04}
{"molecule": "C=CC1=C(C)c2cc3[nH]c(cc4nc(cc5[nH]c(cc1n2)c(C)c5CCC(=O)O)C(CCC(=O)O)=C4C)c(C)c3C=C [Molecule 91]", "qualifier operator": ">", "pIC50": 5.60}
{"molecule": "O=[N+]([O-])c1ccc(/C=C/c2ccc3ccccc3n2)o1 [Molecule 21]", "qualifier operator": "=", "pIC50": 5.08}
{"molecule": "Cc1nc2c(oc3nc(-c4ccco4)c4c(c32)CC(C)(C)OC4)c(-c2ccccc2)c1C(=O)O [Molecule 86]", "qualifier operator": "=", "pIC50": 5.13}
{"molecule": "COc1ccccc1CCC(=O)N1CCc2c(nc3cc(-c4ccccc4)[nH]n3c2=O)C1 [Molecule 7]", "qualifier operator": "=", "pIC50": 5.14}
{"molecule": "O=C(Nc1nnc(-c2ccno2)o1)c1ccc2ncsc2c1 [Molecule 62]", "qualifier operator": "=", "pIC50": 4.85}
{"molecule": "NC(=O)c1cc[n+](CC2=C(C(=O)[O-])N3C(=O)[C@@H](NC(=O)[C@@H](c4ccccc4)S(=O)(=O)[O-])[C@H]3SC2)cc1.[Na+] [Molecule 9]", "qualifier operator": "=", "pIC50": 5.36}
